These data points were gathered from patent US10221177B2.

target desc: UniProt:O75762
test summary: In vitro inhibition of human TRPA1, whole cell patch configuration
test settings: current activation 10 μM AITC, tested concentrations 320 pM to 3.2 μM, read-out: hTRPA1 IC50
Quick reference: IC50 of the listed items.
Your reply should be a number followed by the unit it is expressed in.

Answered examples (2):
* CCC(=O)Cn1c(=O)c2c(ncn2[C@@H](C)C(=O)Nc2cncc(-c3ccc(N4CC5C(C4)C5(F)F)nc3)n2)n(C)c1=O (stereo partly drawn) [Compound 84] | 4 nM
* CCC(=O)Cn1c(=O)c2c(ncn2[C@@H](C)C(=O)Nc2cncc(-c3ccc(N4CC5CC5C4)nc3)n2)n(C)c1=O (stereo partly drawn) [Compound 42] | 4 nM

Read the next record carefully.
Can you look up the measured IC50 of CC(C(=O)Nc1ccnc(-c2cnc(C(F)(F)F)nc2)n1)n1cnc2c1c(=O)n(Cc1ccccn1)c(=O)n2C (stereo not drawn) [Compound 141] for me? 80 nM

---

Tested on: formalin-induced pain behaviors in the rat
test summary: Formalin-induced pain test (formalin model), duration of pain behaviors
Assay type: in vivo
test settings: 3 mg/kg PO one hour prior to formalin, solution in 4% DMSO, 5% Tween-80, 20% Cremophor EL, 71% water
parameter measured: Duration (0-5 Minutes) Average
Give a bare numeral; the unit s is implied.

Answered examples (5):
* CCC(=O)Cn1c(=O)c2c(ncn2[C@@H](C)C(=O)Nc2cccc(-c3cnc(C)c(C(F)(F)F)c3)n2)n(C)c1=O | 120.3
* CCC(=O)Cn1c(=O)c2c(ncn2[C@@H](C)C(=O)Nc2csc(-c3cnc(N4CCC[C@H]4C(F)(F)F)nc3)n2)n(C)c1=O | 157.1
* CC(=O)Cn1c(=O)c2c(ncn2[C@@H](C)C(=O)Nc2cncc(-c3cnc(N4CC5C(C4)C5(F)F)nc3)n2)n(C)c1=O (stereo partly drawn) | 172.9
* COCC(=O)Cn1c(=O)c2c(ncn2[C@@H](C)C(=O)Nc2csc(-c3cnc(N4CC5CC5C4)nc3)n2)n(C)c1=O (stereo partly drawn) | 154.0
* Cc1noc(Cn2c(=O)c3c(ncn3[C@@H](C)C(=O)Nc3cccc(-c4cnc(C(F)(F)F)nc4)n3)n(C)c2=O)n1 | 140.0

Can you look up the measured Duration (0-5 Minutes) Average of Cc1nc(Cn2c(=O)c3c(ncn3[C@@H](C)C(=O)Nc3ccnc(-c4cnc(C)c(C(F)(F)F)c4)n3)n(C)c2=O)no1 for me? 149.0

Can you handle Cc1nc(Cn2c(=O)c3c(ncn3CC(=O)Nc3csc(-c4cnc(C(F)(F)F)c(C)c4)n3)n(C)c2=O)no1 next? 119.6

---

Quick reference: Average PWL Post-Treatment of the listed items.
Tested on: CFA-induced cold hypersensitivity of the hind paw
test summary: CFA-induced pain test, cold hypersensitivity (cold plate paw withdrawal latency)
Format: in vivo
test settings: 3 mg/kg PO, 1-2 hour pre-treatment; cold plate 1° C.; solution in 4% DMSO; 5% Tween-80; 20% Cremophor EL; and 71% water
Number, no unit, nothing else.

Answered examples (2):
* CC(=O)Cn1c(=O)c2c(ncn2[C@@H](C)C(=O)Nc2ccnc(-c3cnc(N4CC5C(C4)C5(F)F)nc3)n2)n(C)c1=O (stereo partly drawn) | 278.5
* CC(=O)Cn1c(=O)c2c(ncn2[C@@H](C)C(=O)Nc2cccc(-c3cnc(N4CC5C(C4)C5(F)F)nc3)n2)n(C)c1=O (stereo partly drawn) | 259.9

Find Average PWL Post-Treatment (CFA-induced cold hypersensitivity of the hind paw) for the entry C[C@@H](C(=O)Nc1csc(-c2cnc(N3CC4CC4C3)nc2)n1)n1cnc2c1c(=O)n(CC#N)c(=O)n2C (stereo partly drawn) 272.6

---

Quick reference: pIC50 of the listed items.
target desc: UniProt O75762
test summary: In vitro inhibition of human TRPA1, whole cell patch configuration
test settings: current activation 10 μM AITC, tested concentrations 320 pM to 3.2 μM, read-out: hTRPA1 IC50
Quick note: pIC50 values are minus log10 of concentrations in mol/L.

Answered examples (5):
- CCC(=O)Cn1c(=O)c2c(ncn2[C@@H](C)C(=O)Nc2cncc(-c3cnc(N4CC5CC5C4)nc3)n2)n(C)c1=O (some centres unmarked): 8.10
- C[C@@H](C(=O)Nc1csc(-c2cnc(N3CC4CC4C3)nc2)n1)n1cnc2c1c(=O)n(CC#N)c(=O)n2C (some centres unmarked): 9.00
- Cc1cc(Cn2c(=O)c3c(ncn3[C@@H](C)C(=O)Nc3cccc(-c4cnc(C(F)(F)F)c(C)c4)n3)n(C)c2=O)no1: 8.70
- Cc1noc(Cn2c(=O)c3c(ncn3CC(=O)Nc3cccc(-c4cnc(C(F)(F)F)c(C)c4)n3)n(C)c2=O)n1: 8.30
- Cn1c(=O)n(Cc2ccccn2)c(=O)c2c1ncn2CC(=O)Nc1csc(-c2ccc(F)c(F)c2)n1: 7.85

Can you look up the measured pIC50 of CC(=O)Cn1c(=O)c2c(ncn2[C@@H](C)C(=O)Nc2cncc(-c3ccc(N4CC5C(C4)C5(F)F)nc3)n2)n(C)c1=O (some centres unmarked) for me? 8.00

Can you handle Cc1cc(Cn2c(=O)c3c(ncn3[C@@H](C)C(=O)Nc3cncc(-c4cnc(C)c(C(F)(F)F)c4)n3)n(C)c2=O)no1 next? 8.40

Can you handle C[C@@H](C(=O)Nc1cncc(-c2cnc(N3CC4C(C3)C4(F)F)nc2)n1)n1cnc2c1c(=O)n(CC#N)c(=O)n2C (some centres unmarked) next? 8.15

Can you handle C[C@@H](C(=O)Nc1cncc(-c2ccc(C(F)(F)F)nc2)n1)n1cnc2c1c(=O)n(Cc1ccccn1)c(=O)n2C next? 7.23

Can you handle Cc1nc(Cn2c(=O)c3c(ncn3[C@@H](C)C(=O)Nc3csc(-c4cnc(C)c(C(F)(F)F)c4)n3)n(C)c2=O)no1 next? 8.70

Can you handle C[C@@H](C(=O)Nc1cccc(-c2ccc(C(F)(F)F)nc2)n1)n1cnc2c1c(=O)n(Cc1ccon1)c(=O)n2C next? 8.05

---

target desc: human TRPA1 (Homo sapiens (Human), UniProt O75762)
Sequence (O75762 whole entry): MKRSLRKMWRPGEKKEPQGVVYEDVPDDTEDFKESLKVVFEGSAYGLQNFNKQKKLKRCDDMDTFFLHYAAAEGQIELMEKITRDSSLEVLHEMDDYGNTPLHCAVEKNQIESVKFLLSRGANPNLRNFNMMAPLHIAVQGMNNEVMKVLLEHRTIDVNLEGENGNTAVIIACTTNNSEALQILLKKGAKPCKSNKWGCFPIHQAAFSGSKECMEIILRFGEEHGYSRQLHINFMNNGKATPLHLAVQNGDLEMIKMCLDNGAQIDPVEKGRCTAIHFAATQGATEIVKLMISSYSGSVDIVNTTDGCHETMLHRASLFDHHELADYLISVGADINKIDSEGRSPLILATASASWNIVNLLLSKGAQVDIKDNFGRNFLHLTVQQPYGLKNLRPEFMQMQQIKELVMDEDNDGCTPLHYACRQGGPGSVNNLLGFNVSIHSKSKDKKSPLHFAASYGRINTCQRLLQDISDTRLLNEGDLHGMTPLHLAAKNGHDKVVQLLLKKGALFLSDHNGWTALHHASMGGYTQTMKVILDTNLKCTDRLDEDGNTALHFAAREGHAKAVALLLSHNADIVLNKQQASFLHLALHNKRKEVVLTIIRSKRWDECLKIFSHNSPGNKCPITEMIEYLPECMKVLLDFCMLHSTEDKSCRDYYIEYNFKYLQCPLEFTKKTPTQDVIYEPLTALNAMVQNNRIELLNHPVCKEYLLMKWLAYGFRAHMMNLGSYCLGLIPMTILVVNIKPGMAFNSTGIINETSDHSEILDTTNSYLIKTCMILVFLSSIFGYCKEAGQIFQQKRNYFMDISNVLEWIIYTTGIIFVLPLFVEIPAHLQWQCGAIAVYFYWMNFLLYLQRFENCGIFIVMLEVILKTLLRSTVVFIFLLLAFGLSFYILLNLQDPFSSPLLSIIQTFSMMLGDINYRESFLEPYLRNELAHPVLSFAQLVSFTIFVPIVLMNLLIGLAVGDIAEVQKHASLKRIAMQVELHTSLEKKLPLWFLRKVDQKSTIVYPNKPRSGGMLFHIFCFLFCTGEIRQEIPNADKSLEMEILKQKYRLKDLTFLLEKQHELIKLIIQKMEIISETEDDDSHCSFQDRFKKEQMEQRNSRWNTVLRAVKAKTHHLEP
test summary: In vitro inhibition of human TRPA1, whole cell patch configuration
test settings: current activation 10 μM AITC, tested concentrations 320 pM to 3.2 μM, read-out: hTRPA1 IC50
pIC50: −log10 of the molar value.
// label = true (1) if pIC50 is not less than 8, otherwise false (0)

Check out these entries, answers already filled in.
- Cc1cc(Cn2c(=O)c3c(ncn3CC(=O)Nc3cccc(-c4cnc(C(F)(F)F)c(C)c4)n3)n(C)c2=O)on1: false (0)
- C[C@@H](C(=O)Nc1cccc(-c2cnc(N3CCC[C@H]3C(F)(F)F)nc2)n1)n1cnc2c1c(=O)n(CC#N)c(=O)n2C: true (1)
- Cc1cc(Cn2c(=O)c3c(ncn3CC(=O)Nc3cccc(N4CCN(CC(F)(F)F)CC4)n3)n(C)c2=O)no1: false (0)
- Cc1cc(Cn2c(=O)c3c(ncn3[C@@H](C)C(=O)Nc3cccc(-c4ccc(C(F)(F)F)nc4)n3)n(C)c2=O)no1: true (1)

Here is the next item to consider.
In plain terms: is recorded pIC50 at least 8 for Cn1c(=O)n(Cc2ccccn2)c(=O)c2c1ncn2CC(=O)Nc1cccc(-c2cnc(N3CCC[C@H]3C(F)(F)F)nc2)n1 ? true (1)

---

target desc: UniProtKB O75762
test summary: In vitro inhibition of human TRPA1, whole cell patch configuration
test settings: current activation 10 μM AITC, tested concentrations 320 pM to 3.2 μM, read-out: hTRPA1 IC50
parameter measured: log10 IC50 (log10 of the value in nM)
Please keep in mind that the values are log10 of IC50 expressed in nM.

* CCc1cc(NC(=O)Cn2cnc3c2c(=O)n(Cc2cc(C)on2)c(=O)n3C)nc(C(F)(F)F)c1 | 3.21
* CCC(=O)Cn1c(=O)c2c(ncn2[C@@H](C)C(=O)Nc2csc(-c3cnc(N4CC5CC5C4)cn3)n2)n(C)c1=O (stereo partly shown) | 0.48
* C[C@@H](C(=O)Nc1cccc(-c2cnc(N3CCC[C@@H]3C(F)(F)F)nc2)n1)n1cnc2c1c(=O)n(CC#N)c(=O)n2C | 0.48

Can you look up the measured log10 IC50 of CCC(=O)Cn1c(=O)c2c(ncn2[C@@H](C)C(=O)Nc2csc(-c3cnc(N(CC)CC)nc3)n2)n(C)c1=O for me? 0.48

Can you handle Cc1cc(Cn2c(=O)c3c(ncn3CC(=O)Nc3cccc(N4CC5C(C4)C5(F)F)n3)n(C)c2=O)no1 (stereo not shown) next? 2.15

Can you handle CC(=O)Cn1c(=O)c2c(ncn2CC(=O)Nc2cccc(-c3cnc(C)c(C(F)(F)F)c3)n2)n(C)c1=O next? 0.60

Can you handle CC(=O)Cn1c(=O)c2c(ncn2[C@@H](C)C(=O)Nc2csc(-c3ccc(Cl)c(Cl)c3)n2)n(C)c1=O next? 0.30
